System: Streptococcus pneumoniae
Assay: MIC, CLSI broth microdilution, clinical isolates
Assay type: cell-based
Details: Streptococcus pneumoniae (PSSP, N = 31)
The following compounds are listed with their measured MIC50 values.
Only the number, expressed in µg/mL, is required.

Examples with their reported MIC50 follow.
# compound, MIC50 (µg/mL)
records = [
    ("NC[C@H]1O[C@H](O[C@H]2[C@H](O)[C@@H](O[C@H]3O[C@H](CO)[C@@H](O)[C@H](N)[C@H]3O)[C@H](N)C[C@@H]2N)[C@H](N)C[C@@H]1O", 16),
    ("C[C@H]1COc2c(N3CCN(C)CC3)c(F)cc3c(=O)c(C(=O)O)cn1c23", 0.5),
    ("CC[C@H]1OC(=O)[C@H](C)[C@@H](O[C@H]2C[C@@](C)(OC)[C@@H](O)[C@H](C)O2)[C@H](C)[C@@H](O[C@@H]2O[C@H](C)C[C@H](N(C)C)[C@H]2O)[C@](C)(O)C[C@@H](C)CN(C)[C@H](C)[C@@H](O)[C@]1(C)O", 0.06),
    ("COc1c(N2CCNC(C)C2)c(F)cc2c(=O)c(C(=O)O)cn(C3CC3)c12 (centres unmarked)", 0.12),
]

[Q] Which measured MIC50 value corresponds to N[C@@H]1CCCCN(c2c(F)cc3c(=O)c(C(=O)O)cn(C4CC4)c3c2Cl)C1 ?
[A] 0.06

Sourced from patent US8415342B2
